# TARGET OR TEST SYSTEM: Yer064c (UniProt P40041)
# Sequence: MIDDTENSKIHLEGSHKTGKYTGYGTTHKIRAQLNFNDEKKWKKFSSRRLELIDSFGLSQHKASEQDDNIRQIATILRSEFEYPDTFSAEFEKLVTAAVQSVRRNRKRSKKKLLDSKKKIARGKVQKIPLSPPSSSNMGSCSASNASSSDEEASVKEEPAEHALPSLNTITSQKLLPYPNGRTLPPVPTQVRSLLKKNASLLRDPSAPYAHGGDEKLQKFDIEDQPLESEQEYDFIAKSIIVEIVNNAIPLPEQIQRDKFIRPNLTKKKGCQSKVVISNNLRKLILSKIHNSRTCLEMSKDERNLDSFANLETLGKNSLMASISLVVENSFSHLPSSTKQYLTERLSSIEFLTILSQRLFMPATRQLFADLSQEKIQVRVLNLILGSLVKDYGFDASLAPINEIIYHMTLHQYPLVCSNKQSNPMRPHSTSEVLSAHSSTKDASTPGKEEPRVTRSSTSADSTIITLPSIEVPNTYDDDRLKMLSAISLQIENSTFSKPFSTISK
# ASSAY COMMENT: PBM E-score (8-mer binding enrichment) (E-score (-0.5 to 0.5)); higher = stronger / more preferred TF binding
# REPORTED CONDITIONS: protein concentration: 200 nM; construct: GST-full length
The full ranking holds about 33,000 sequences; the median of “E-score (-0.5 to 0.5)” is about -0.036, and the highest 2% start at about 0.37. This excerpt belongs to a sample that is enriched for the highest values.
Use Y when the recorded PBM E-score is no lower than 0.05; use N when it is lower.

Use these answered entries as a reference point.
GGGAGCCA : N
CGATTTAA : Y
CCCATGCC : N
GGCTATCA : N
AGGTCTTA : N
CACCGTTA : Y
AGTCAATG : Y
GGATTACA : Y
AAGACCAG : N
GAAAATAA : Y

IN: Decide: PBM E-score of "AGTCAGTC" >= 0.05?
OUT: Y

IN: Decide: PBM E-score of "CGTCAATC" >= 0.05?
OUT: Y

IN: Decide: PBM E-score of "AGTCAATC" >= 0.05?
OUT: Y

IN: Decide: PBM E-score of "GGACGTAC" >= 0.05?
OUT: N

IN: Decide: PBM E-score of "AGGGATAA" >= 0.05?
OUT: Y

IN: Decide: PBM E-score of "ATGGTGCC" >= 0.05?
OUT: N
